A collection of molecules and their measured PAR-2 AP2 Signaling Treated/Control
Test system: PAR-2
Test Summary: Inhibition of PAR-2 activating peptide (AP2) calcium signaling in cells pretreated with antagonist
Assay type: cell-based, human
Parameters: key: AUC of calcium mobilization, treated ÷ control wells
Reported Conditions: mimetic antagonists; AUC of calcium mobilization treated/control; initially screened at 1 mM compound
Property: PAR-2 AP2 Signaling Treated/Control

Cl.N[C@H]1CC[C@@H](C(=O)N2CCN(C(=O)CC3CCCCC3)CC2)CC1 [ENMD-1781] : 0.71
O=C(Cc1ccncc1)N1CCN(C(=O)CC2CCCCC2)CC1 [ENMD-1079] : 0.90
CC(C)CNC(=O)C1CN(C(=O)CCCCCN)CCO1 (stereo not drawn) [ENMD-1524] : 0.73

###

# key: entry, value: PAR-2 AP2 Signaling Treated/Control
Test system: PAR-2
Test Summary: Inhibition of PAR-2 activating peptide (AP2) calcium signaling in cells pretreated with antagonist
Assay type: cell-based, human
Design: key: AUC of calcium mobilization, treated ÷ control wells
Reported Conditions: mimetic antagonists; AUC of calcium mobilization treated/control; initially screened at 1 mM compound
Structures can show the parent of a compound that is named as a salt.
Property: PAR-2 AP2 Signaling Treated/Control

NCCCCCCNC(=O)c1cccn1CC1CCCCC1 : 0.05
CC(C)CCN1C(C(=O)NCCCCCCN)CCS1(=O)=O (stereo not drawn) : 0.25
CC(C)CC(=O)Nc1nc(CC(=O)NCCCCCN)cs1 : 0.26
CC(C)CCc1cn(CCCCCCN)nn1 : 0.65
NCCCCCCNC(=O)C1CCS(=O)(=O)N1CCC1CCCCC1 (stereo not drawn) : 0.24
CC(C)CCCC(=O)N1CCN(C(=O)CCCCCN)CC1 : 0.35
Cl.O=C(CC1CCCCC1)N1CCN(C(=O)C2CCNCC2)CC1 : 0.91
CC(C)CNC(=O)c1ccc(-c2ccc(NC(=O)CCCCCN)cc2)cc1 : 0.64
NCCCCCNC(=O)c1ccc(C(=O)NCC2CCCCC2)cc1 : 0.73
CCC(C)C(=O)N1CCN(C(=O)CCCCCN)CC1 (stereo not drawn) : 0.28
NCCCCCC(=O)Nc1cc(C(=O)NCC2CCCCC2)n[nH]1 : 0.44
O=C(Cc1cnc[nH]1)N1CCN(C(=O)CC2CCCCC2)CC1 [ENMD-1071, hydrochloride] : 0.16
CC(C)CC(=O)Nc1cc(C(=O)NCCCCCCN)n[nH]1 : 0.63
NCCCCCC(=O)NC1CN(C(=O)CC2CCCCC2)C1 : 0.97
CC(C)CNC(=O)c1cc(NC(=O)CCCCCN)[nH]n1 : 0.68
CC(C)CC(=O)N1CC(NC(=O)CCCCCN)C1 : 0.65
Nc1ccc(CC(=O)N2CCN(C(=O)CC3CCCCC3)CC2)cc1 : 0.05
CC(C)CC(=O)N1CCN(C(=O)CCCCCNC(=N)N)CC1 : 0.77
NCCCCNc1ccc(C(=O)NCC2CCCCC2)cn1 : 0.55
NCCCCCC(=O)N1CC2CN(C(=O)CC3CCCCC3)CC2C1 (stereo not drawn) : 0.82
NCCCCCCNc1nc2ccc(C(=O)NCC3CCCCC3)cc2[nH]1 : 0.81

###

Test system: PAR-2
Test Summary: Inhibition of PAR-2 activating peptide (AP2) calcium signaling in cells pretreated with antagonist
Format: cell-based, human
Set-up: key: AUC of calcium mobilization, treated ÷ control wells
Reported Conditions: mimetic antagonists; AUC of calcium mobilization treated/control; initially screened at 1 mM compound
Counter-ions that a name gives are not always drawn.
Friendly reminder: PAR-2 AP2 Signaling Treated/Control below 0.4 is condition met, at or above is condition not met.

CC(C)CCn1c(=O)n(CCc2ccc(NC(C)C)cc2)c2ccccc21 [ENMD-1563] : condition not met
CC(C)CNC(=O)[C@@H]1CC[C@@H](NC(=O)CCCCCN)C1 [ENMD-1504] : condition not met
O=C(NCCC1CCNCC1)c1cnc(NCC2CCCCC2)cn1 [ENMD-1572] : condition met
N=C(N)NCCCCCC(=O)N1CCN(C(=O)CC2CCCCC2)CC1 [ENMD-1072] : condition not met
NCCCOc1ccc(C(=O)NCC2CCCCC2)cc1 [ENMD-1411] : condition not met
Cl.N[C@@H]1CCC[C@H](C(=O)N2CCN(C(=O)CC3CCCCC3)CC2)C1 [ENMD-1774] : condition not met
NCCCCNC(=O)c1ccc(OCC2CCCCC2)cc1 [ENMD-1406] : condition met
CC(C)CNC(=O)[C@H]1CC[C@@H](NC(=O)CCCCCN)C1 [ENMD-1536] : condition not met
NCCCCCCn1cccc1C(=O)NCC1CCCCC1 [ENMD-1570] : condition met
NCCCCCCNC(=O)c1ccc2nc(NCC3CCCCC3)[nH]c2c1 [ENMD-1526] : condition not met
O=C(Cc1cccnc1)N1CCN(C(=O)CC2CCCCC2)CC1 [ENMD-1074] : condition met
NCCCCCC(=O)Nc1nc(CC(=O)NCC2CCCCC2)cs1 [ENMD-1560] : condition not met
Nc1ccc(CCn2c(=O)n(CCC3CCCCC3)c3ccccc32)cc1 [ENMD-1574] : condition met
NCCCCCC(=O)N1CCN(C(=O)Cc2ccccc2)CC1 [ENMD-1078] : condition not met
CC(C)CC(=O)N1CCOC(C(=O)NCCCCCCN)C1 (stereo not shown) [ENMD-1522] : condition not met
CC(C)CNc1nc2ccc(C(=O)NCCCCCCN)cc2[nH]1 [ENMD-1525] : condition not met
CC(C)CNc1ccc(C(=O)NCCCCN)cn1 [ENMD-1541] : condition not met
CC(C)COc1ccc(C(=O)NCCCN)cc1 [ENMD-1408, N-(3-aminopropyl)-4-isobutoxy-benzamide] : condition met
Cl.O=C(CC1CCCCC1)Nc1ccc(NC(=O)C2CCCNC2)cc1 (stereo not shown) [ENMD-1771] : condition met
NCCCCNC(=O)c1ccc(CCC2CCCCC2)cc1 [ENMD-1509] : condition not met
CC(C)COc1ccc(C(=O)NCCCCN)cc1 [ENMD-1405, N-(4-aminobutyl)-4-isobutoxy-benzamide] : condition met
CC(C)CC(=O)NCc1cc(C(=O)NCCCCCCN)no1 [ENMD-1556] : condition not met
NCCCCCCNC(=O)C1CN(C(=O)CC2CCCCC2)CCO1 (stereo not shown) [ENMD-1521] : condition not met
NCCCCCC(=O)NCCNC(=O)CC1CCCCC1 [ENMD-1417] : condition met
NCCCCC(=O)NCc1cc(C(=O)NCC2CCCCC2)no1 [ENMD-1558] : condition not met
CC(C)CC(=O)N1CCN(C(=O)Cc2ccc(N)cc2)CC1 [ENMD-1065] : condition met
Cl.O=C(CC1CCCCC1)Nc1ccc(NC(=O)C2CCNCC2)cc1 [ENMD-1772] : condition not met
NCCCCCCN1C(C(=O)NCCC2CCCCC2)CCS1(=O)=O (stereo not shown) [ENMD-1545] : condition met
NCCCCNC(=O)c1ccc(NC(=O)C2CCCCC2)cc1 [ENMD-1511, hydrochloride] : condition met
CCC(=O)N1CCN(C(=O)CCCCCN)CC1 [ENMD-1037] : condition not met
NCCC1CCN(c2cnc(C(=O)NCCC3CCCCC3)cn2)CC1 [ENMD-1778] : condition met
CC(C)CNC(=O)c1cc(CNC(=O)CCCCN)on1 [ENMD-1555] : condition not met
CC(C)CCn1c(=O)n(CCCCCCN)c2ccccc21 [ENMD-1517] : condition not met
CC(C)CNC(=O)c1ccc(NCCCCN)nc1 [ENMD-1562] : condition not met
NCCCCCC(=O)N1CCN(C(=O)CC2CCCCC2)CC1 [ENMD-1073] : condition not met
CC(C)CNC(=O)c1ccc(OCCCN)cc1 [ENMD-1410, 4-(3-aminopropoxy)-N-isobutyl-benzamide] : condition not met
CC(C)C(=O)N1CCN(C(=O)CCCCCN)CC1 [ENMD-1035] : condition met
O=C(Cc1ccccn1)N1CCN(C(=O)CC2CCCCC2)CC1 [ENMD-1069] : condition not met
Br.CC(C)CC(=O)N1CCN(C(=O)CCCCCN)CC1 [ENMD-1068] : condition not met
CC(C)CNC(=O)c1cccn1CCCCCCN [ENMD-1569] : condition not met

###

Tested on: PAR-2
Test Summary: Inhibition of PAR-2 activating peptide (AP2) calcium signaling in cells pretreated with antagonist
Format: cell-based, human
Set-up: key: AUC of calcium mobilization, treated ÷ control wells
Reported Conditions: mimetic antagonists; AUC of calcium mobilization treated/control; initially screened at 1 mM compound
Values of PAR-2 AP2 Signaling Treated/Control greater than or equal to 0.4 map to 1.0; values below map to 0.0.

CC(C)CC(=O)N1CC2CN(C(=O)CCCCCN)CC2C1 (centres unmarked) : 1.0
CCCCC(=O)N1CCN(C(=O)CCCCCN)CC1 : 1.0
O=C(Cc1ccccc1)N1CCN(C(=O)Cc2cnc[nH]2)CC1 : 0.0
CC(C)CC(=O)Nc1ccc(NC(=O)CCCCCN)cc1 : 0.0
